Target: recombinant N-terminal GST-tagged human Rho kinase 2 (ROCK2, amino acids 1-552) (Homo sapiens, UniProt O75116)
Construct: ROCK2, amino acids 1-552; purchased Invitrogen Inc. PV3759
Sequence (O75116 1-552): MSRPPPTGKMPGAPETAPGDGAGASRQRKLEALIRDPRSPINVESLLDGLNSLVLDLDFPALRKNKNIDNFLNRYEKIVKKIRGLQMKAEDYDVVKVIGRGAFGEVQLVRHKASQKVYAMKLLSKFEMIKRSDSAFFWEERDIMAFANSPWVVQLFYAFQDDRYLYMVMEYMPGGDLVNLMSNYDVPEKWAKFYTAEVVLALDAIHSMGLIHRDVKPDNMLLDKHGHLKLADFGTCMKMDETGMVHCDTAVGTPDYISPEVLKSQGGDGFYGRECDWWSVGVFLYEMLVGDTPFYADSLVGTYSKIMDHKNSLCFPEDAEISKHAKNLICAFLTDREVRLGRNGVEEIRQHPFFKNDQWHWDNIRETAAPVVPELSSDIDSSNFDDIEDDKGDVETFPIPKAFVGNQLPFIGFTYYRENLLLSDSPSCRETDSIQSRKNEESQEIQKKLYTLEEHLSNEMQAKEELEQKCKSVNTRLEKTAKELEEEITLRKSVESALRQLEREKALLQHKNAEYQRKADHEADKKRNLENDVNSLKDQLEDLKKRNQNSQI
Assay: In vitro Rho kinase assay (luciferase-based ATP consumption), ROCK2
Type: biochemical
Settings: recombinant GST-tagged human ROCK2, luciferase-based ATP consumption; read-out: ROCK2 IC50
The entries below are paired with their reported IC50.

Sample answers from the record:
CC(=O)Nc1cccc(C(=O)NCc2ccc3sc(-c4ccnc(N)n4)c(C)c3c2)c1 ... < 5 µM
Cc1c(-c2ccnc(N)n2)sc2ccc(Cc3cccc(C(=O)NCCN4CCOCC4)c3)cc12 ... < 5 µM
COc1ccc(OC)c(Cc2ccc3sc(-c4ccnc(N)n4)c(C)c3c2)c1 ... > 5 µM
CCCCN(C)C(=O)c1ccc2sc(-c3ccnc(N)n3)c(C)c2c1 ... < 5 µM
CCCN(C)C(=O)c1ccc2sc(-c3ccnc(N)n3)c(C)c2c1 ... < 5 µM
Cc1c(-c2ccnc(N)n2)sc2ccc(Nc3ccncc3)cc12 ... < 5 µM

Lookup: Param item = Cc1c(-c2ccnc(N)n2)sc2ccc(C(=O)N3CCC(NC(=O)OC(C)(C)C)C3)cc12 (stereo not shown) [Example 531] ; retrieve measured IC50.
Found: < 5 µM

Lookup: Data request, read-out IC50, for Cc1ccc(SCC(=O)NCc2ccc3sc(-c4ccnc(N)n4)c(C)c3c2)cc1
Found: < 5 µM

Lookup: Would you kindly share the measured IC50 for COc1ccccc1C=CC(=O)NCc1ccc2sc(-c3ccnc(N)n3)c(C)c2c1 ?
Found: < 5 µM

Lookup: May I ask what IC50 has been recorded for Cc1c(-c2ccnc(N)n2)sc2ccc(CNC(=O)C3Cc4ccccc4CN3C(=O)OC(C)(C)C)cc12 (stereo not shown) ?
Found: > 5 µM

Lookup: Quick one: IC50 for Cc1ccc(CNC(=O)c2ccc3sc(-c4ccnc(N)n4)c(C)c3c2)cc1 ?
Found: < 5 µM

----------
Biological target: recombinant N-terminal GST-tagged human Rho kinase 2 (ROCK2, amino acids 1-552) (Homo sapiens)
Construct: ROCK2, amino acids 1-552; purchased Invitrogen Inc. PV3759
Assay: In vitro Rho kinase assay (luciferase-based ATP consumption), ROCK2
Assay type: biochemical
Settings: recombinant GST-tagged human ROCK2, luciferase-based ATP consumption; read-out: ROCK2 IC50
pIC50: −log10 of the molar value.
measure: pIC50

Consider the reported pIC50 for these compounds:
CCN(CC)c1ccc(C(=O)NCc2ccc3sc(-c4ccnc(N)n4)c(C)c3c2)cc1 ... > 5.30
Cc1c(-c2ccnc(N)n2)sc2ccc(CNC(=O)c3cc4cc(Cl)ccc4o3)cc12 ... > 5.30
Cc1c(-c2ccnc(N)n2)sc2ccc(CNC(=O)c3cn(C)cn3)cc12 ... > 5.30
CCC(=O)C(=O)NCc1ccc2sc(-c3ccnc(N)n3)c(C)c2c1 ... > 5.30
COc1ccc(C(=O)NCc2ccc3sc(-c4ccnc(N)n4)c(C)c3c2)cc1 ... > 5.30

Lookup: Fill blank: measured pIC50 of the compound Cc1c(-c2ccnc(N)n2)sc2ccc(C(=O)N3C[C@@H](C)N[C@@H](C)C3)cc12 is ____.
Found: > 5.30

Lookup: // returns reported pIC50 for input C#CCN(C)C(=O)c1ccc2sc(-c3ccnc(N)n3)c(C)c2c1
Found: > 5.30

Lookup: Dear colleague, I am looking for the recorded pIC50 of the following compound: Cc1cccc(N2CCN(C(=O)c3ccc4sc(-c5ccnc(N)n5)c(C)c4c3)CC2C)c1 (stereo not shown)
Found: < 5.30

Lookup: Entry CCOc1ccccc1CNC(=O)c1ccc2sc(-c3ccnc(N)n3)c(C)c2c1 has what pIC50?
Found: > 5.30

Lookup: Find the recorded pIC50 belonging to Cc1c(-c2ccnc(N)n2)sc2ccc(CNC(=O)c3ccc(Oc4cccc(O)c4)cc3)cc12 and report it.
Found: > 5.30

Lookup: Which pIC50 value belongs to Cc1c(-c2ccnc(N)n2)sc2ccc(C(=O)NCCCN(C)c3ccccc3)cc12 ?
Found: > 5.30

Lookup: # input compound: Cc1cc(C(=O)NCc2ccc3sc(-c4ccnc(N)n4)c(C)c3c2)ccc1Br ; wanted: its pIC50
Found: < 5.30

Lookup: What value of pIC50 has been recorded for this entry: CCCOc1ccc(C(=O)NCc2ccc3sc(-c4ccnc(N)n4)c(C)c3c2)cc1
Found: < 5.30

Lookup: Given the entry Cc1c(-c2ccnc(N)n2)sc2ccc(CNC(=O)Cc3c(F)cccc3F)cc12 , report its measured pIC50.
Found: > 5.30

Lookup: What value of pIC50 has been recorded for this entry: Cc1c(-c2ccnc(N)n2)sc2ccc(C(=O)N3CCN(CCN4CCOCC4)CC3)cc12
Found: < 5.30

Lookup: Name the recorded pIC50 for COc1cc(OC)c(C(=O)NCc2ccc3sc(-c4ccnc(N)n4)c(C)c3c2)cc1OC .
Found: > 5.30

Lookup: Record request: pIC50 value, item Cc1c(-c2ccnc(N)n2)sc2ccc(Cc3cccc(C(=O)O)c3)cc12
Found: > 5.30

Lookup: Data request, read-out pIC50, for Cc1c(-c2ccnc(N)n2)sc2ccc(CNC(=O)Cc3ccc(Br)cc3)cc12
Found: > 5.30

Lookup: Entry COc1cc(C(=O)NCc2ccc3sc(-c4ccnc(N)n4)c(C)c3c2)cc(OC)c1O has what pIC50?
Found: > 5.30

----------
Molecular target: recombinant N-terminal GST-tagged human Rho kinase 1 (ROCK1, amino acids 1-535) (Homo sapiens)
Construct: ROCK1, amino acids 1-535; purchased Invitrogen Inc. PV-3691
Assay: In vitro Rho kinase assay (luciferase-based ATP consumption), ROCK1
Assay type: biochemical
Conditions: recombinant GST-tagged human ROCK1, luciferase-based ATP consumption; read-out: ROCK1 IC50
measure: IC50

Cc1c(-c2ccnc(N)n2)sc2ccc(Sc3cccc(C(=O)O)c3)cc12 ... < 5 µM
COc1cccc(Nc2ccc3sc(-c4ccnc(N)n4)c(C)c3c2)c1 ... < 5 µM
Cc1c(-c2ccnc(N)n2)sc2ccc(CNC(=O)C=Cc3ccccc3C(F)(F)F)cc12 ... > 5 µM
Cc1ccc(C(=O)NCc2ccc3sc(-c4ccnc(N)n4)c(C)c3c2)cc1F ... > 5 µM
CC(=O)Oc1ccc(C(=O)Nc2cccc(Nc3ccc4sc(-c5ccnc(N)n5)c(C)c4c3)c2)cc1 ... < 5 µM

Kindly review the next molecule as well.
Lookup: Which IC50 value belongs to Cc1c(-c2ccnc(N)n2)sc2ccc(Nc3ccc4c(c3)OCO4)cc12 ?
Found: < 5 µM

----------
As shown below, each of these compounds has a reported pIC50 value.
Molecular target: recombinant N-terminal GST-tagged human Rho kinase 1 (ROCK1, amino acids 1-535) (Homo sapiens, UniProt Q13464)
Construct: ROCK1, amino acids 1-535; purchased Invitrogen Inc. PV-3691
Sequence (Q13464 1-535): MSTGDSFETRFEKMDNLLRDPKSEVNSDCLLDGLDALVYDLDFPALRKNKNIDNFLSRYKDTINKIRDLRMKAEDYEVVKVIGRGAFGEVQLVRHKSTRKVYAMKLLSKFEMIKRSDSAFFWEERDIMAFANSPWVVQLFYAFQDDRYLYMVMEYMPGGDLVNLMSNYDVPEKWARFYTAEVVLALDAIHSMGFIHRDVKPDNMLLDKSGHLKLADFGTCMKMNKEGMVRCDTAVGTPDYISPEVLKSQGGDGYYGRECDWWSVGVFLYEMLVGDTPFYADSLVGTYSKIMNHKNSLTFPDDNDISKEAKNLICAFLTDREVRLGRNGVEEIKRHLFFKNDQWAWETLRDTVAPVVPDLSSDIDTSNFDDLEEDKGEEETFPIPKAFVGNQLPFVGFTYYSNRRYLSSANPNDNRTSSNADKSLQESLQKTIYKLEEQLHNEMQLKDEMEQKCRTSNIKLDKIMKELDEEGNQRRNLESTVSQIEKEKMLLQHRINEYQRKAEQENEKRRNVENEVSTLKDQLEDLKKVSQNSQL
Assay: In vitro Rho kinase assay (luciferase-based ATP consumption), ROCK1
Format: biochemical
Details: recombinant GST-tagged human ROCK1, luciferase-based ATP consumption; read-out: ROCK1 IC50
pIC50: −log10 of the molar value.

Example cases with answers are listed next.
Cc1c(-c2ccnc(N)n2)sc2ccc(CNC(=O)c3cc(Cl)ccn3)cc12 ... > 5.30
Cc1c(-c2ccnc(N)n2)sc2ccc(Nc3cccc(N)c3)cc12 ... > 5.30
Cc1ccc(SCC(=O)NCc2ccc3sc(-c4ccnc(N)n4)c(C)c3c2)cc1 ... < 5.30
Cc1cc(C(=O)NCc2ccc3sc(-c4ccnc(N)n4)c(C)c3c2)n[nH]1 ... < 5.30
Cc1c(-c2ccnc(N)n2)sc2ccc(Cc3ccccc3)cc12 ... > 5.30
Cc1c(-c2ccnc(N)n2)sc2ccc(-c3ccccc3)cc12 ... > 5.30
Cc1c(-c2ccnc(N)n2)sc2ccc(CNC(=O)c3cccc4ccccc34)cc12 ... > 5.30
Cc1c(-c2ccnc(N)n2)sc2ccc(CNC(=O)c3cc4cc(Cl)ccc4o3)cc12 ... > 5.30

Switching to the query record.
Lookup: Return reported pIC50; argument: Cc1c(-c2ccnc(N)n2)sc2ccc(CNC(=O)c3ccccc3C=O)cc12
Found: > 5.30

----------
Target: recombinant N-terminal GST-tagged human Rho kinase 1 (ROCK1, amino acids 1-535) (Homo sapiens)
Construct: ROCK1, amino acids 1-535; purchased Invitrogen Inc. PV-3691
Test: In vitro Rho kinase assay (luciferase-based ATP consumption), ROCK1
Format: biochemical
Conditions: recombinant GST-tagged human ROCK1, luciferase-based ATP consumption; read-out: ROCK1 IC50
Description: In Vitro Rho Kinase Assay Rho kinase biochemical assays described below depend on firefly luciferase-based, indirect measurement of total ATP consumption by the kinase following incubation with substrate and ATP. […] After an additional 10 minute incubation at room temperature (about 22° C.), luminescence activity is measured on a Molecular Devices Analyst multi-mode plate reader or other suitable plate reader. […] Negative control activity is measured with DMSO lacking any test compound. […]
Entries and their measured IC50 follow.

# count of solved cases: 5
Cc1c(-c2ccnc(N)n2)sc2ccc(CNC(=O)CCc3cccc(Br)c3)cc12 ... > 5 µM
Cc1c(-c2ccnc(N)n2)sc2ccc(Oc3cccc([N+](=O)[O-])c3)cc12 ... < 5 µM
Cc1c(-c2ccnc(N)n2)sc2ccc(CNC(=O)c3cc([N+](=O)[O-])ccc3F)cc12 ... < 5 µM
Cc1c(-c2ccnc(N)n2)sc2ccc(CNC(=O)c3ncc[nH]3)cc12 ... < 5 µM
Cc1c(-c2ccnc(N)n2)sc2ccc(CNC(=O)Cc3cccc(O)c3)cc12 ... > 5 µM

Lookup: Can you look up the measured IC50 of Cc1c(-c2ccnc(N)n2)sc2ccc(CNC(=O)c3ccc(N(C)C=O)cc3)cc12 for me?
Found: < 5 µM

Lookup: Which IC50 is listed for COc1ccc2cc(C(C)C(=O)NCc3ccc4sc(-c5ccnc(N)n5)c(C)c4c3)ccc2c1 (centres unmarked) ?
Found: < 5 µM

Lookup: Report IC50 for Cc1c(-c2ccnc(N)n2)sc2ccc(CNC(=O)c3c4ccccc4cc4ccccc34)cc12 please.
Found: < 5 µM

Taken from patent US20080021026A1.
